Assign relative viability to each entry below.
Test system: NCI-H2087
Assay: relative viability (nuclei count vs DMSO), 5 days (fraction); higher = more cells survive
Settings: first compound 0.253 µM
Simply state the number, no unit and no words.

## Task I'd like to know its relative viability. The compound in question is Nc1cccc2c1CN(C1CCC(=O)NC1=O)C2=O (stereo unspecified) [Lenalidomide] + CS(=O)(=O)N1CCN(Cc2cc3nc(-c4cccc5[nH]ncc45)nc(N4CCOCC4)c3s2)CC1 [Pictilisib] (partner 1 µM)
## Result 0.982

## Task Ok, now Nc1cccc2c1CN(C1CCC(=O)NC1=O)C2=O (stereo unspecified) [Lenalidomide] + COc1cccc2cc(-c3nc([C@H]4CC[C@H](C(=O)O)CC4)n4ncnc(N)c34)[nH]c12 [OSI-027] (partner 0.5 µM)
## Result 0.679

## Task Ok, now Nc1cccc2c1CN(C1CCC(=O)NC1=O)C2=O (stereo unspecified) [Lenalidomide] + Cc1nc(NC(=O)N2CCC[C@H]2C(N)=O)sc1-c1ccnc(C(C)(C)C(F)(F)F)c1 [Alpelisib] (partner 2 µM)
## Result 0.996

## Task Ok, now Nc1cccc2c1CN(C1CCC(=O)NC1=O)C2=O (stereo unspecified) [Lenalidomide] + CC(=O)c1c(C)c2cnc(Nc3ccc(N4CCNCC4)cn3)nc2n(C2CCCC2)c1=O [Palbociclib] (partner 0.5 µM)
## Result 0.248

## Task Ok, now Nc1cccc2c1CN(C1CCC(=O)NC1=O)C2=O (stereo unspecified) [Lenalidomide] + Cc1cc(Nc2cc(N3CCN(C)CC3)nc(Sc3ccc(NC(=O)C4CC4)cc3)n2)n[nH]1 [Tozasertib] (partner 0.1 µM)
## Result 0.24

## Task Ok, now Nc1cccc2c1CN(C1CCC(=O)NC1=O)C2=O (stereo unspecified) [Lenalidomide] + CC1(C)CCC(c2ccc(Cl)cc2)=C(CN2CCN(c3ccc(C(=O)NS(=O)(=O)c4ccc(N[C@H](CCN5CCOCC5)CSc5ccccc5)c(S(=O)(=O)C(F)(F)F)c4)cc3)CC2)C1 [Navitoclax] (partner 0.5 µM)
## Result 1.03
